# System: CYP3A
# test_description: Decrease in CYP3A gene expression in human hepatocytes at 2.5 uM after 3 days by qPCR analysis
# Type: ADME, cell-based, Hepatocyte
reported_property: inhibition at 72 h, 2.5 µM

inhibition at 72 h, 2.5 µM reading for CC(C)C[C@H](NC(=O)[C@H](CCc1ccccc1)NC(=O)CN1CCOCC1)C(=O)N[C@@H](Cc1ccccc1)C(=O)N[C@@H](CC(C)C)C(=O)[C@@]1(C)CO1 : > 95%

----------
# test_description: Drug excretion in urine of human multiple myeloma patient with normal renal function at 15 mg/m'2, iv on days 1, 2, 8, 9, 15 and 16 of 28-day cycle over 2 to 10 mins by LC-MS/MS analysis relative to total drug dose
# Format: ADME, organism-based
# reported_conditions: read-out: Drug excretion
reported_property: dose excreted

So, CC(C)C[C@H](NC(=O)[C@H](CCc1ccccc1)NC(=O)CN1CCOCC1)C(=O)N[C@@H](Cc1ccccc1)C(=O)N[C@@H](CC(C)C)C(=O)[C@@]1(C)CO1 ? Its dose excreted was < 1%

----------
# assay_target: CYP3A (Homo sapiens, UniProt P08684+P20815+P24462+Q9HB55)
# test_description: Inhibition of CYP3A in human liver microsomes assessed as substrate metabolite formation using midazolam as substrate preincubated with microsomes for 30 mins prior to substrate addition measured after 5 mins by LC-MS/MS analysis
# Assay type: ADME
# reported_conditions: probe midazolam
reported_property: IC50 at 5 min (nM)
Your answer should be a plain number; it is taken to be in nM.

The reported IC50 at 5 min of the compound CC(C)C[C@H](NC(=O)[C@H](CCc1ccccc1)NC(=O)CN1CCOCC1)C(=O)N[C@@H](Cc1ccccc1)C(=O)N[C@@H](CC(C)C)C(=O)[C@@]1(C)CO1 was 490

----------
# test_description: Cmax in human patient with relapsed solid tumor at 20 mg/m'2, iv administered on days 1, 2, 8, 9 15 and 16 of 28-day cycle over 2 to 10 mins measured on day 1 of cycle 1 by LC-MS/MS analysis
# Assay type: ADME, organism-based
# Design: route intravenous
# reported_conditions: in vivo
reported_property: Cmax (ng/mL)
API: value field is a number in ng/mL; no unit string.

Measured Cmax of CC(C)C[C@H](NC(=O)[C@H](CCc1ccccc1)NC(=O)CN1CCOCC1)C(=O)N[C@@H](Cc1ccccc1)C(=O)N[C@@H](CC(C)C)C(=O)[C@@]1(C)CO1 : 2760

----------
# assay_target: CYP3A (Homo sapiens, UniProt P08684+P20815+P24462+Q9HB55)
# test_description: Time-dependent inhibition of CYP3A in human liver microsomes preincubated for 30 mins with carfilzomib by LC-MS/MS analysis
# Assay type: ADME
# reported_conditions: liver microsomes
reported_property: IC50 at 30 min (nM)
A number alone suffices; assume nM.

# IC50 at 30 min (compound: CC(C)CC(NC(=O)C(CCc1ccccc1)NC(=O)CN1CCOCC1)C(=O)NC(Cc1ccccc1)C(=O)NC(CC(C)C)C(=O)C(C)(O)CO (stereo unspecified) ) is 1800

----------
# test_description: AUC infinity in human patient with relapsed solid tumor at 20 mg/m'2, iv administered on days 1, 2, 8, 9, 15 and 16 of 28-day cycle over 2 to 10 mins measured on day 16 of cycle 1 by LC-MS/MS analysis
# Type: ADME, organism-based
# Design: time infinity, route intravenous
# reported_conditions: plasma
reported_property: AUC(0-inf)
Reply with a number, then the unit it belongs to.

Recorded AUC(0-inf) (compound CC(C)C[C@H](NC(=O)[C@H](CCc1ccccc1)NC(=O)CN1CCOCC1)C(=O)N[C@@H](Cc1ccccc1)C(=O)N[C@@H](CC(C)C)C(=O)[C@@]1(C)CO1 ): 301 ng·h/mL
